Reported Plant response rating, Ducksalad (0 to 100 scale, 0 is no effect, 100 is complete control) is given for each of the following compounds.
tested on: ducksalad (Heteranthera limosa); assay: Test B flooded paddy test, ducksalad; format: in vivo; details: Flood, 250 g ai/ha, applied to paddy water, 2-leaf stage, visual evaluation after 13 to 15 d
Please respond with just the number, no unit label.

Consider the worked cases shown below.
# COMPOUND, QUANTITATIVE RESULT
rows = [
    ("CC(C)[C@@H](Nc1ncc(C(F)(F)F)c(N)n1)c1cc2ccccc2s1 [Compound 50]", 0),
    ("C[C@H](Nc1nc(N)c(C(F)(F)F)c(C(F)(F)F)n1)C1Cc2ccccc2C1 [Compound 68]", 0),
]

Moving on to the next compound.
Record Nc1nc(NC(c2cc3ccccc3o2)C2CC2)ncc1C(F)(F)F (stereo not drawn) [Compound 88] . Reported Plant response rating, Ducksalad (0 to 100 scale, 0 is no effect, 100 is complete control): 65
